These data points were gathered from patent US20060293317A1.

# experimentalTarget: PR-B progesterone receptor (Homo sapiens)
# Sequence (P06401 whole entry): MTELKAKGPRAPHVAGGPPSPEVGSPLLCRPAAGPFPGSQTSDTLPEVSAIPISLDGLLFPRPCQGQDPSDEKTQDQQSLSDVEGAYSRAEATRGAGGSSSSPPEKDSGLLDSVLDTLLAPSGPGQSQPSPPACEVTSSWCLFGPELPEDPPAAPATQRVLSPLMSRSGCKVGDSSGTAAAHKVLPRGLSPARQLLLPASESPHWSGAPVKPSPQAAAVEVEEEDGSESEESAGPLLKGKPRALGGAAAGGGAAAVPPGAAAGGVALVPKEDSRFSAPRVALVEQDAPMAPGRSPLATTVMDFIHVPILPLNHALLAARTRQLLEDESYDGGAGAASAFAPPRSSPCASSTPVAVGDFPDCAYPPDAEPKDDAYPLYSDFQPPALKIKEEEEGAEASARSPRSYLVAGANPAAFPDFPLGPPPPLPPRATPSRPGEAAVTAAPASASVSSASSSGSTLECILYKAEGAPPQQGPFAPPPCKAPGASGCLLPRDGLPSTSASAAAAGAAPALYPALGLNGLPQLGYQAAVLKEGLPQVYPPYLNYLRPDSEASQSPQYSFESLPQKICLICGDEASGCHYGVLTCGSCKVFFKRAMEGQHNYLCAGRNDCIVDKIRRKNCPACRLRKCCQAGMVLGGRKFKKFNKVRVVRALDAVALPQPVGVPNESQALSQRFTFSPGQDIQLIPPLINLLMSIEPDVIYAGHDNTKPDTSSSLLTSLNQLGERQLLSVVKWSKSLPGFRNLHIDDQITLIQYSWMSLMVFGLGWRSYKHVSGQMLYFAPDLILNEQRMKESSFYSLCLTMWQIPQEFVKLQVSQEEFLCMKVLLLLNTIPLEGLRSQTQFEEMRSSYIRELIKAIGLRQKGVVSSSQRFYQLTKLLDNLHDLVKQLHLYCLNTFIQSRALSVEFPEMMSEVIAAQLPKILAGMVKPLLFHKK
# measurementDescription: Antagonism at the PR-B progesterone receptor (transactivation assay)
# recordedConditions: transactivation assay as in WO 02/054064, read-out: Antagonistic activity IC50
pIC50: −log10 of the molar value.

# compound, pIC50
measured = [
    ("Cc1noc(=O)c2ccc(NC(=O)C(O)(Cc3ccccc3)CC(C)(C)c3ccccc3)cc12 (stereo not shown) [compound 88]", 9.52),
]
